# Test system: primary astrocytes
# PROTOCOL_TEXT: High throughput screening for lactate secretion: acidification of extracellular medium (SNARF5)
# Type: cell-based, mouse
# Parameters: key: fraction of positive control activity (positive control = 100%)
# SETUP_CONDITIONS: Appendix I; primary screening, 10 uM, 90 min; relative to positive control
REPORTED_ENDPOINT: Score
API note: the answer field is a bare number with no unit suffix.

Solved entries:
O=C1CCCN1c1ccc(S(=O)(=O)Nc2cccc(/C=C/c3ccccn3)c2)cc1    0.6796
CC(=O)N1CCc2sc(S(=O)(=O)N3CCN(c4ccccc4C)CC3)cc2C1    0.9535

# input # query: Score of entry Cc1ccccc1NC(=O)C1CCCN(c2ncnc3oc(C)c(C)c23)C1 (stereo not shown)
# output 1.057

# input # query: Score of entry CCn1nccc1-c1csc(S(=O)(=O)Nc2ccc(Cl)cc2F)c1
# output 0.9286

# input # query: Score of entry CSc1cccc(NS(=O)(=O)c2ccc3onc(C(=O)N4CCCC4)c3c2)c1
# output 0.8545

# input # query: Score of entry Cc1nc2ccc(NS(=O)(=O)c3cccc(F)c3)cc2s1
# output 0.8094

# input # query: Score of entry CCc1ccc(S(=O)(=O)N2CCSC2c2ccc(OC)c(OC)c2)cc1 (stereo not shown)
# output 0.7707

# input # query: Score of entry COc1cc(C)c(Cl)cc1S(=O)(=O)NCc1ccncc1
# output 0.8528

# input # query: Score of entry CCc1ccc(S(=O)(=O)Nc2ccc3[nH]ncc3c2)cc1
# output 0.5424

# input # query: Score of entry CCc1nc(-c2csc(S(=O)(=O)NCc3ccc4c(c3)OCO4)c2)no1
# output 0.5971

* * *

Documented HTS Score (SNARF5) across a set of compounds
# System: primary astrocytes
# PROTOCOL_TEXT: High throughput screening for lactate secretion: acidification of extracellular medium (SNARF5)
# Format: cell-based, mouse
# Parameters: key: fraction of positive control activity (positive control = 100%)
# SETUP_CONDITIONS: CDC54K hits; 10 uM, 90 min; relative to positive control CCCP 2 uM
API note: the answer field is a bare number with no unit suffix.

# input # query: HTS Score (SNARF5) of entry N#Cc1ccc(C(=O)N2CCC(Nc3ncnc4c3CCC4)C2)cc1 (centres unmarked)
# output 0.445

# input # query: HTS Score (SNARF5) of entry CC(=O)N1CCc2sc(S(=O)(=O)N3CCN(c4ccccc4C)CC3)cc2C1
# output 0.953

# input # query: HTS Score (SNARF5) of entry CCc1ccc(S(=O)(=O)Nc2ccc3[nH]ncc3c2)cc1
# output 0.542

# input # query: HTS Score (SNARF5) of entry CSc1cccc(NS(=O)(=O)c2ccc3onc(C(=O)N4CCCC4)c3c2)c1
# output 0.854

# input # query: HTS Score (SNARF5) of entry Cc1nc2ccc(NS(=O)(=O)c3cccc(F)c3)cc2s1
# output 0.809

# input # query: HTS Score (SNARF5) of entry CCc1ccc(S(=O)(=O)N2CCSC2c2ccc(OC)c(OC)c2)cc1 (centres unmarked)
# output 0.77

# input # query: HTS Score (SNARF5) of entry O=C1CCCN1c1ccc(S(=O)(=O)Nc2cccc(/C=C/c3ccccn3)c2)cc1
# output 0.68

# input # query: HTS Score (SNARF5) of entry Cc1ccccc1NC(=O)C1CCCN(c2ncnc3oc(C)c(C)c23)C1 (centres unmarked)
# output 1.058

# input # query: HTS Score (SNARF5) of entry CCc1nc(-c2csc(S(=O)(=O)NCc3ccc4c(c3)OCO4)c2)no1
# output 0.597

# input # query: HTS Score (SNARF5) of entry CCn1nccc1-c1csc(S(=O)(=O)Nc2ccc(Cl)cc2F)c1
# output 0.929

# input # query: HTS Score (SNARF5) of entry COc1cc(C)c(Cl)cc1S(=O)(=O)NCc1ccncc1
# output 0.853
